Data origin, for the record: paper PMC9948168

Please respond with reported inhibition at 10 µM for every item in the list.
# System: A549/ATCC
# PROTOCOL: NCI-60 one-dose screening
# Format: cell-based
# PARTICULARS: Homo sapiens, Non-Small Cell Lung Cancer, read-out: GI (%)
# Description: Compounds 5a–c and 6a–o were tested using standard NCI protocols for in vitro activity at the National Cancer Institute (NCI, Bethesda, Maryland, USA), wherein compounds were tested using one single concentration of 10 μM against 60 cell lines of nine different cancer types. […] Excellent activity was observed against a single NSCLC cell line, EKVX, for compounds 5a–c (GIs = 77–86%, Table 1) with no observed activity for indoles with substituted vanillin 6a–o. […]
# unit: % | format: bare number

Fill in: inhibition at 10 µM of `COc1ccc(COc2ccc(/C=C3/C(=O)Nc4cc(Cl)ccc43)cc2OC)cc1` is ___
-12.9

Fill in: inhibition at 10 µM of COc1cc(C=C2C(=O)Nc3ccc(Cl)cc32)ccc1OCc1ccc(F)cc1 (mixture of isomers) is ___
15.1

Fill in: inhibition at 10 µM of `COc1cc(/C=C2/C(=O)Nc3ccccc32)ccc1OCc1ccc(F)cc1` is ___
-7.83

Fill in: inhibition at 10 µM of COc1cc(C=C2C(=O)Nc3ccc(Cl)cc32)ccc1OCc1ccc(Cl)cc1 (mixture of isomers) is ___
7.48

Fill in: inhibition at 10 µM of COc1cc(C=C2C(=O)Nc3ccccc32)ccc1OCc1ccccn1 (mixture of isomers) is ___
-7.19

Fill in: inhibition at 10 µM of `COc1ccc(COc2ccc(/C=C3/C(=O)Nc4ccccc43)cc2OC)cc1` is ___
-9.19

Fill in: inhibition at 10 µM of COc1cc(C=C2C(=O)Nc3ccc(Cl)cc32)ccc1OCc1ccccn1 (mixture of isomers) is ___
-2.5

Fill in: inhibition at 10 µM of COc1cc(C=C2C(=O)Nc3ccccc32)ccc1O (mixture of isomers) is ___
3.48

Fill in: inhibition at 10 µM of `COc1cc(/C=C2/C(=O)Nc3ccccc32)ccc1OCc1ccc(Cl)cc1` is ___
-7.18

Fill in: inhibition at 10 µM of `COc1cc(/C=C2/C(=O)Nc3cc(Cl)ccc32)ccc1OCc1ccccn1` is ___
-15.6

Fill in: inhibition at 10 µM of `COc1cc(/C=C2/C(=O)Nc3cc(Cl)ccc32)ccc1OCc1ccccc1` is ___
-8.61

Fill in: inhibition at 10 µM of COc1cc(C=C2C(=O)Nc3ccccc32)ccc1OCc1ccccc1 (mixture of isomers) is ___
-9.96

Fill in: inhibition at 10 µM of `COc1cc(/C=C2/C(=O)Nc3cc(Cl)ccc32)ccc1O` is ___
5.44

Fill in: inhibition at 10 µM of COc1cc(C=C2C(=O)Nc3ccc(Cl)cc32)ccc1O (mixture of isomers) is ___
3.56

Fill in: inhibition at 10 µM of `COc1ccc(COc2ccc(/C=C3/C(=O)Nc4ccc(Cl)cc43)cc2OC)cc1` is ___
-1.42

Fill in: inhibition at 10 µM of COc1cc(C=C2C(=O)Nc3cc(Cl)ccc32)ccc1OCc1ccc(Cl)cc1 (mixture of isomers) is ___
-5.86

Fill in: inhibition at 10 µM of `COc1cc(/C=C2/C(=O)Nc3cc(Cl)ccc32)ccc1OCc1ccc(F)cc1` is ___
-9.5
